- tgt: CDK2/Cyclin E1 (Homo sapiens (Human), UniProt P24941)
- assay.remarks: CDK2/Cyclin E1 HTRF enzyme activity assay
- settings: 1 mM ATP
quantity.name: IC50

Please review the following examples before continuing.
In [3]: df
Out[3]:
                                   molecule                                       tgt  obs_value
0  CNS(=O)(=O)c1ccc(Nc2ncc3c(n2)-c2c(nc(C)n2C)CC3)cc1 [Example 4]  CDK2/Cyclin E1 (Homo sapiens (Human), UniProt P24941)    ≤ 50 nM
1  Cc1nc2c(n1C)-c1nc(Nc3ccc(S(=O)(=O)NCCO)cc3)ncc1CC2 [Example 7]  CDK2/Cyclin E1 (Homo sapiens (Human), UniProt P24941)    ≤ 50 nM
2  Cc1nc2c(n1C)-c1nc(Nc3ccc(S(=O)(=O)NC(C)C)cc3)ncc1CC2 [Example 6]  CDK2/Cyclin E1 (Homo sapiens (Human), UniProt P24941)    ≤ 50 nM

Record request: IC50 value, item NS(=O)(=O)c1ccc(Nc2ncc3c(n2)-n2ccnc2CO3)cc1 [Example 9]
≤ 50 nM
